Target: Rb 78
Assay: competitive ELISA on antiserum Rb 78; coated antigen not given
pIC50: −log10 of the molar value.

binder	pIC50
RKIEIVRKKPIFKKATV [GP21a]	7.00
